test system: wheat (Triticum aestivum); assay: Test B pre-/postemergence plant response; type: in vivo; conditions: 31 g ai/ha, postemergence; scale 0 to 100, 0 is no effect, 100 is complete control
The following molecules are listed with their measured Plant response rating, Wheat values.
# output: bare number, no unit

Query block: Requested field: Plant response rating, Wheat. Item: Cn1c(-c2ccccc2)ncc(C(=O)C2=C(O)CCCC2=O)c1=O
Result block: 0

Query block: Requested read-out: Plant response rating, Wheat. Entry: CCCCc1ncc(C(=O)C2=C(O)CCCC2=O)c(=O)n1-c1cccc(C)c1
Result block: 0

Query block: Looking for the measured Plant response rating, Wheat of CCCCCn1c(-c2ccccc2)ncc(C(=O)C2=C(O)CCCC2=O)c1=O , can you help?
Result block: 0

Query block: So what does the record say about Plant response rating, Wheat for Cc1ccc(-c2ncc(C(=O)C3=C(O)CCCC3=O)c(=O)n2-c2ccccc2)cc1 ?
Result block: 5
